# Tested on: F culmorum
# experiment: Specific antifungal activity of Rs-AFP2 isoforms in SMF− and SMF+ media
# Type: cell-based
# measurementParameters: 1/IC50 of mutant divided by that of yRs-AFP2 x 100; 48 hour incubation; SMF with 1 mM CaCl2 and 50 mM KCl; preliminary tests
endpointLabel: RELATIVE SPECIFIC ACTIVITY (%) IN MEDIUM SMF+

>>> reported("yRs-AFP2/I26R (QKLCQRPSGTWSGVCGNNNACKNQCRRLEKARHGSCNYVFPAHKCICYFPC; listed as Raphanus sativus)")
82
>>> reported("yRs-AFP2/A42R (QKLCQRPSGTWSGVCGNNNACKNQCIRLEKARHGSCNYVFPRHKCICYFPC; listed as Raphanus sativus)")
26
